# Assay System: T1, full-length PcrV.6xhis (Pseudomonas aeruginosa)
# T1 construct: Recombinant full-length V-tip protein of the type 3 secretion system, His-tagged; also called full-length PcrV with a C-terminal hexahistidine tag
# Experiment Description: SPR (Biacore T200), mAb captured via anti-human Fc, PcrV injected, 25 C
Let's look at some binders and their measured koff.
Measured Metric: koff (s⁻¹)

{"Binder": "REGN3514 (antibody, V domains shown, also called Control I; Control I-REGN3514) VH: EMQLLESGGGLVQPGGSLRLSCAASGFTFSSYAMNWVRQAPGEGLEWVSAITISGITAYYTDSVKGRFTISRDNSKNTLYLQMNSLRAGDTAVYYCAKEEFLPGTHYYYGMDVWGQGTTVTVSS VL: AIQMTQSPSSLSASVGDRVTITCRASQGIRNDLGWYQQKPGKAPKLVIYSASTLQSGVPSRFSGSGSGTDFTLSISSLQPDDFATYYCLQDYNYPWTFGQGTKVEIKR", "Result Units": "s⁻¹", "Operator Symbol": "=", "Number": "3.9e-05"}
{"Binder": "REGN3977 (antibody, V domains shown, also called Control III; REGN3977-Control III) VH: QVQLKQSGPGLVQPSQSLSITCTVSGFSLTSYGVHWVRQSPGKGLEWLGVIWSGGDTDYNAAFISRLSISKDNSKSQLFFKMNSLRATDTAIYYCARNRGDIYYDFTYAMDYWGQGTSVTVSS VL: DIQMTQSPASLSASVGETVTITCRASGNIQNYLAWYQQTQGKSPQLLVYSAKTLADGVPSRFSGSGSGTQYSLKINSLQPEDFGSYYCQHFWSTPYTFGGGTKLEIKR", "Result Units": "s⁻¹", "Operator Symbol": "=", "Number": 0.000495}
{"Binder": "H1H29339P (antibody, V domains shown) VH: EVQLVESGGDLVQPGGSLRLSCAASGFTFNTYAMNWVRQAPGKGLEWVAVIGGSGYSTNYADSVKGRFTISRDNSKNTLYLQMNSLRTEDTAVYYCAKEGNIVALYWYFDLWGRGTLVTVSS VL: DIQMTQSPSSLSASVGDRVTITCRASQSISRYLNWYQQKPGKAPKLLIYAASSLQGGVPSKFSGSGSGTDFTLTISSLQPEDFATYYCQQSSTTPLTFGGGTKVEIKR", "Result Units": "s⁻¹", "Operator Symbol": "≤", "Number": "1e-05"}
